# Tested on: MDA-MB-435
outcome.measure: GI50

C#Cc1c(I)n(C2OC(CO[Si](C)(C)C(C)(C)C)C3OC(C)(C)OC32)c(=O)[nH]c1=O (configuration not stated): 15 µM
CC1=C(C(=O)Nc2ccc(F)c(Cl)c2)C(c2cccc(O)c2)NC(=O)N1 (configuration not stated): 59.7 µM
CCOc1cc(C(C)(C)C)ccc1C1=N[C@@](C)(c2ccc(Cl)cc2)[C@@](C)(c2ccc(Cl)cc2)N1C(=O)N1CCN(CCCS(C)(=O)=O)CC1: 5.21 µM
Cc1ccc(-c2nc3ccc(Cl)cc3c(=O)n2N2C(=O)CSC2c2ccccc2Cl)cc1 (configuration not stated): > 100 µM
CC(=O)N[C@H]1CSSC[C@@H](C(N)=O)NC(=O)[C@H](C(C)C)NC(=O)[C@H](C)NC(=O)[C@H](Cc2cnc[nH]2)NC1=O: > 100 µM
CN(CCC#N)c1ccc(/C=C(\C#N)c2ccc(Br)cc2)cc1: 1.97 µM

Quick one: GI50 of CCCCON(OC(=O)c1ccc2ccc3cccc4ccc1c2c34)C(C)=O ?
22.3 µM
